# Tested on: Proteus vulgaris
# method: Minimum inhibitory concentration was evaluated in vitro againist Proteus vulgaris 9920
# Assay type: functional
measured_attribute: MIC

mol=CCCCCCCCCCCCCCCCCC(=O)NNC(=O)C[n+]1ccccc1 data_value="> 69 µM"
mol=CCCCCCCCCCCC(=O)NNC(=O)C[n+]1ccccc1 data_value="680 µM"
mol=CCCCCCCCCCCCCCCC(=O)NNC(=O)C[n+]1ccccc1 data_value="> 74 µM"
mol=CCCCCCCCCCCCCC(=O)NNC(=O)C[n+]1ccccc1 data_value="> 79 µM"
mol=CCCCCCCC/C=C\CCCCCCCC(=O)NNC(=O)C[n+]1ccccc1 data_value="> 69 µM"

I have this molecule here, "CCCCCCCCCC(=O)NNC(=O)C[n+]1ccccc1" , and I need its recorded MIC.
> 1500 µM

// lookup MIC for "CCCCCCCC(=O)NNC(=O)C[n+]1ccccc1"
> 1600 µM

---

Below, each of the compounds is paired with its reported MIC value.
# System: Pseudomonas aeruginosa
# method: Minimum inhibitory concentration was evaluated in vitro againist P. Ps. aeruginosa MGH-2
# Assay type: functional

The following compounds have reported results that may help.
mol=CCCCCCCC(=O)NNC(=O)C[n+]1ccccc1 measured_attribute=MIC data_value="> 1600 µM"
mol=CCCCCCCC/C=C\CCCCCCCC(=O)NNC(=O)C[n+]1ccccc1 measured_attribute=MIC data_value="> 34 µM"
mol=CCCCCCCCCCCCCCCC(=O)NNC(=O)C[n+]1ccccc1 measured_attribute=MIC data_value="> 37 µM"
mol=CCCCCCCCCCCCCCCCCC(=O)NNC(=O)C[n+]1ccccc1 measured_attribute=MIC data_value="> 34 µM"

Reported MIC for "CCCCCCCCCC(=O)NNC(=O)C[n+]1ccccc1" : what is it?
> 1500 µM

Dear colleague, I am looking for the recorded MIC of the following compound: "CCCCCCCCCCCC(=O)NNC(=O)C[n+]1ccccc1"
340 µM

Which MIC is reported for this compound? "CCCCCCCCCCCCCC(=O)NNC(=O)C[n+]1ccccc1"
> 39 µM
